molecular target: F508delCFTR (Homo sapiens, UniProt P13569, DEL508-508); construct: expressed in transfected cells; host or cells: CFBE41o- human lung-derived epithelial cell line, doxycycline-inducible expression; assay: Cell Surface Expression-Horse Radish Peroxidase (CSE-HRP) assay in CFBE41o-F508delCFTR-HRP cells; assay type: cell-based; details: with co-corrector (2 μM); CFBE41o-F508delCFTR-HRP cells, 18-24 hours at 33° C., luminescence; read-out: EC50 (with co-corrector)
Sequence (P13569 with tags, fused parts or gaps DEL508-508): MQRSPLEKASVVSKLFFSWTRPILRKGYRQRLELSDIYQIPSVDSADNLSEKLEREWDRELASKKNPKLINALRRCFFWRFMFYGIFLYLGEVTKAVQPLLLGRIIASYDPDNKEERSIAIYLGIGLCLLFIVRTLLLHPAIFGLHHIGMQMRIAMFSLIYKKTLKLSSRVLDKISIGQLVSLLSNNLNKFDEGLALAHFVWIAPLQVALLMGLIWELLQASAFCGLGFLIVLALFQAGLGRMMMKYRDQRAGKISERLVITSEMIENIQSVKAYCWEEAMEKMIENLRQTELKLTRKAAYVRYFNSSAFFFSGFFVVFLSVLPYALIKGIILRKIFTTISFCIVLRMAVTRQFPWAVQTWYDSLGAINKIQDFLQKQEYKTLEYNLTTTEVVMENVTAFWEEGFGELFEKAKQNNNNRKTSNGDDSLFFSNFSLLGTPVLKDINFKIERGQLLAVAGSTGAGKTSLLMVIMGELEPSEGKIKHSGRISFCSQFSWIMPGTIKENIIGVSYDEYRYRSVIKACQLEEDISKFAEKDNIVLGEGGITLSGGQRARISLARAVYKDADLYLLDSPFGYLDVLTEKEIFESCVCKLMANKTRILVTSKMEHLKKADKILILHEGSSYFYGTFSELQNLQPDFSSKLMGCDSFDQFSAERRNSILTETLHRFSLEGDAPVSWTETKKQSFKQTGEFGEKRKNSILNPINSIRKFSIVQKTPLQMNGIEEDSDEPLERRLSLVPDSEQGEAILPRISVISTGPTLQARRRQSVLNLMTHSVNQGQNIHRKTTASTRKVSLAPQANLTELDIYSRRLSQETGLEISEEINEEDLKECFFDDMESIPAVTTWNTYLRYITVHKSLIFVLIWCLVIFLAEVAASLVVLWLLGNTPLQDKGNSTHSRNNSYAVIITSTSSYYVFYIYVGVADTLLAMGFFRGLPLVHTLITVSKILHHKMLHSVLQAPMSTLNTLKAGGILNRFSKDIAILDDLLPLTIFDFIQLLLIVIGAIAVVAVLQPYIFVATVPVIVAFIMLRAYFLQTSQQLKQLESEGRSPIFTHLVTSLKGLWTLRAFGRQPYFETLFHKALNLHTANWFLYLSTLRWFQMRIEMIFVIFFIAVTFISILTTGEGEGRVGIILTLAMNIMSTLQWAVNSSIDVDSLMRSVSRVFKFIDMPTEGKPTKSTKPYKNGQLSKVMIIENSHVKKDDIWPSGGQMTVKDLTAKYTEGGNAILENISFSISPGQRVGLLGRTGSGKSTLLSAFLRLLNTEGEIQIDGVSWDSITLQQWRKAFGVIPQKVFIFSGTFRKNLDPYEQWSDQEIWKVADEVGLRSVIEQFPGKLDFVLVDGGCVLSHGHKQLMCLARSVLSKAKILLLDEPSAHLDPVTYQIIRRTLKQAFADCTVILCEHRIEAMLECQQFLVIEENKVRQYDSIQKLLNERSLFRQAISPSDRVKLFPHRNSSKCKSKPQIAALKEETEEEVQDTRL

# Compound, EC50 (µM)
data = [
    ("CCOc1ccc([C@H]2C[C@@]2(C(=O)NS(=O)(=O)c2cccc3nc(C)ccc23)c2cc(C)ccc2OC)cn1", 2.12),
    ("CCOc1cccc([C@H]2C[C@@]2(C(=O)NS(=O)(=O)c2cccc3nc(C)ccc23)c2cc(C)ccc2OC)n1", 0.339),
    ("COc1ccc(C)cc1[C@]1(C(=O)NS(=O)(=O)c2cccc3nc(C)ccc23)C[C@@H]1c1ccc(C(F)F)nc1", 2.6),
    ("COc1ccc(C)cc1[C@@]1(C(=O)NS(=O)(=O)c2cccc3nc(C)ccc23)C[C@H]1c1cccc(F)c1 (racemic) [Example 8]", 0.504),
]

----------
molecular target: F508delCFTR (Homo sapiens, UniProt P13569, DEL508-508); construct: expressed in transfected cells; host or cells: CFBE41o- human lung-derived epithelial cell line, doxycycline-inducible expression; experiment: Cell Surface Expression-Horse Radish Peroxidase (CSE-HRP) assay in CFBE41o-F508delCFTR-HRP cells; format: cell-based; conditions: without co-corrector; CFBE41o-F508delCFTR-HRP cells, 18-24 hours at 33° C., luminescence; read-out: EC50 (without co-corrector)
Property label: log10 of EC50 (log10 of the value in nM)

# Compound, Assay system, log10 of EC50
records = [
    ("COc1ccc(C)cc1[C@@]1(C(=O)NS(=O)(=O)c2cccc3nc(C)ccc23)C[C@H]1c1cccc(F)c1 (single isomer, unassigned) [Example 21]", "F508delCFTR (Homo sapiens, UniProt P13569, DEL508-508)", 3.04),
    ("COc1ccc(C)cc1[C@@]1(C(=O)NS(=O)(=O)c2cccc3nc(C)ccc23)C[C@H]1c1ccccc1C(F)(F)F (single isomer, unassigned)", "F508delCFTR (Homo sapiens, UniProt P13569, DEL508-508)", 2.38),
    ("COc1ccc(C)cc1[C@]1(C(=O)NS(=O)(=O)c2cccc3nc(C)ccc23)C[C@@H]1c1cc(F)cnc1OC", "F508delCFTR (Homo sapiens, UniProt P13569, DEL508-508)", 3.13),
    ("CCOc1cccc([C@@H]2C[C@]2(C(=O)NS(=O)(=O)c2cccc3nc(C)ccc23)c2cc(C)ccc2OC)n1", "F508delCFTR (Homo sapiens, UniProt P13569, DEL508-508)", 2.95),
    ("COc1ncc([C@H]2C[C@@]2(C(=O)NS(=O)(=O)c2cccc3nc(C)ccc23)c2cc(C)ccc2OC)cn1 (single isomer, unassigned)", "F508delCFTR (Homo sapiens, UniProt P13569, DEL508-508)", 3.48),
    ("COc1ccc(C)cc1[C@]1(C(=O)NS(=O)(=O)c2cccc3nc(C)ccc23)C[C@@H]1c1cnc(OC)c(Cl)c1", "F508delCFTR (Homo sapiens, UniProt P13569, DEL508-508)", 3.36),
    ("COc1ccc(C)cc1[C@]1(C(=O)NS(=O)(=O)c2cccc3nc(C)ccc23)C[C@@H]1c1ccccc1 (single isomer, unassigned)", "F508delCFTR (Homo sapiens, UniProt P13569, DEL508-508)", 3.39),
    ("COc1ccc(C)cc1[C@@]1(C(=O)NS(=O)(=O)c2cccc3nc(C)ccc23)C[C@H]1c1ccccc1F (single isomer, unassigned) [Example 26]", "F508delCFTR (Homo sapiens, UniProt P13569, DEL508-508)", 2.57),
    ("COc1nccc([C@@H]2C[C@]2(C(=O)NS(=O)(=O)c2cccc3nc(C)ccc23)c2cc(C)ccc2OC)n1 (racemic) [Example 95]", "F508delCFTR (Homo sapiens, UniProt P13569, DEL508-508)", 3.26),
    ("CCOc1cccc([C@H]2C[C@@]2(C(=O)NS(=O)(=O)c2cccc3nc(C)ccc23)c2cc(C)ccc2OC)n1", "F508delCFTR (Homo sapiens, UniProt P13569, DEL508-508)", 3.00),
    ("COc1ccc(C)cc1[C@]1(C(=O)NS(=O)(=O)c2cccc3nc(C)ccc23)C[C@@H]1c1cnc(C)cn1 (single isomer, unassigned) [Example 92]", "F508delCFTR (Homo sapiens, UniProt P13569, DEL508-508)", 3.33),
    ("COCc1cccc([C@H]2C[C@@]2(C(=O)NS(=O)(=O)c2cccc3nc(C)ccc23)c2cc(C)ccc2OC)n1", "F508delCFTR (Homo sapiens, UniProt P13569, DEL508-508)", 3.24),
    ("CCOc1cnc([C@@H]2C[C@]2(C(=O)NS(=O)(=O)c2cccc3nc(C)ccc23)c2cc(C)ccc2OC)cn1 (single isomer, unassigned) [Example 65]", "F508delCFTR (Homo sapiens, UniProt P13569, DEL508-508)", 3.13),
    ("COc1ccc(C)cc1[C@]1(C(=O)NS(=O)(=O)c2cccc3nc(C)ccc23)C[C@@H]1c1ccc(C(C)C)nc1", "F508delCFTR (Homo sapiens, UniProt P13569, DEL508-508)", 3.52),
    ("COc1ccc(C)cc1[C@]1(C(=O)NS(=O)(=O)c2cccc3nc(C)ccc23)C[C@@H]1c1ccc(C(C)C)nc1OC (single isomer, unassigned)", "F508delCFTR (Homo sapiens, UniProt P13569, DEL508-508)", 3.07),
    ("COc1ccc(C)cc1[C@]1(C(=O)NS(=O)(=O)c2cccc3nc(C)ccc23)C[C@@H]1c1cccnc1OC (single isomer, unassigned)", "F508delCFTR (Homo sapiens, UniProt P13569, DEL508-508)", 3.37),
    ("COc1ccc(C)cc1[C@]1(C(=O)NS(=O)(=O)c2cccc3nc(C)ccc23)C[C@@H]1c1ccc(C)nc1", "F508delCFTR (Homo sapiens, UniProt P13569, DEL508-508)", 3.66),
    ("COc1ccc(C)cc1[C@]1(C(=O)NS(=O)(=O)c2cccc3nc(C)ccc23)C[C@@H]1c1cccc(C(F)(F)F)c1 (single isomer, unassigned) [Example 23]", "F508delCFTR (Homo sapiens, UniProt P13569, DEL508-508)", 2.51),
    ("COc1ccc([C@@H]2C[C@]2(C(=O)NS(=O)(=O)c2cccc3nc(C)ccc23)c2cc(C)ccc2OC)cc1 (racemic) [Example 9]", "F508delCFTR (Homo sapiens, UniProt P13569, DEL508-508)", 3.22),
    ("COc1ccc(C)cc1[C@]1(C(=O)NS(=O)(=O)c2cccc3nc(C)ccc23)C[C@@H]1c1ccccc1C(F)(F)F (single isomer, unassigned) [Example 30]", "F508delCFTR (Homo sapiens, UniProt P13569, DEL508-508)", 2.42),
    ("COc1ccc(C)cc1[C@@]1(C(=O)NS(=O)(=O)c2cccc3nc(C)ccc23)C[C@H]1c1ccc(C)cc1 (racemic) [Example 4]", "F508delCFTR (Homo sapiens, UniProt P13569, DEL508-508)", 2.69),
    ("COc1ccc(C)cc1[C@@]1(C(=O)NS(=O)(=O)c2cccc3nc(C)ccc23)C[C@H]1c1ccc(C(C)C)nc1OC (single isomer, unassigned) [Example 87]", "F508delCFTR (Homo sapiens, UniProt P13569, DEL508-508)", 2.66),
    ("COc1ccc(C)cc1[C@]1(C(=O)NS(=O)(=O)c2cccc3nc(C)ccc23)C[C@@H]1c1ccccc1C", "F508delCFTR (Homo sapiens, UniProt P13569, DEL508-508)", 2.89),
    ("COc1ccc(C)cc1[C@@]1(C(=O)NS(=O)(=O)c2cccc3nc(C)ccc23)C[C@H]1c1ccc(C(F)(F)F)cc1 (single isomer, unassigned)", "F508delCFTR (Homo sapiens, UniProt P13569, DEL508-508)", 3.00),
]

----------
Target: F508delCFTR (Homo sapiens, UniProt P13569, DEL508-508)
Construct: expressed in transfected cells; host or cells: CFBE41o- human lung-derived epithelial cell line, doxycycline-inducible expression
Assay: Cell Surface Expression-Horse Radish Peroxidase (CSE-HRP) assay in CFBE41o-F508delCFTR-HRP cells
Format: cell-based
Conditions: without co-corrector; normalized to on-plate positive control corrector (2 μM)
Protocol: A cellular assay for measuring the F508delCFTR cell surface expression after correction with test compounds either without or with a co-corrector (2 μM of 3-[(2R,4R)-4-({[1-(2,2-difluoro-1,3-benzodioxol-5-yl)cyclopropyl]carbonyl}amino)-7-methoxy-3,4-dihydro-2H-chromen-2-yl]benzoic acid), was developed in human lung derived epithelial cell line (CFBE4lo-) (Veit G et al, (2012) Mol Biol Cell. 23(21): 4188-4202). […] The raw counts from the experiment were analyzed using Accelrys® Assay Explorer v3.3. […]
Property label: Maximum % activity (without co-corrector) (%)

# Molecule, Result value
rows = [
    ("COc1cccc([C@@H]2C[C@]2(C(=O)NS(=O)(=O)c2cccc3nc(C)ccc23)c2cc(C)ccc2OC)n1", 384),
    ("COc1ccc(C)cc1[C@]1(C(=O)NS(=O)(=O)c2cccc3nc(C)ccc23)C[C@@H]1c1ccc(C(C)C)nc1", 492),
    ("COc1ccc(C)cc1[C@]1(C(=O)NS(=O)(=O)c2cccc3nc(C)ccc23)C[C@@H]1c1cnc(OC)c(C)c1", 800),
    ("COc1ccc(C)cc1[C@@]1(C(=O)NS(=O)(=O)c2cccc3nc(C)ccc23)C[C@H]1c1cncc(F)c1 (single isomer, unassigned) [Example 53]", 229),
]
